# Tested on: MS2 coat protein
# protocol.notes: apparent KD of MS2 coat protein; higher = weaker reporter binding
# experimental.conditions: Eterna round: R107; input ligand: none
recorded.metric: apparent KD of MS2 coat protein
The answer should read as a number with its unit following.

| biosequence | assay.system | apparent KD of MS2 coat protein |
| --- | --- | --- |
| UCGUUUGAGGCGGCCGCCACUGGUCUCAUGGUCAACAUGAGGAUCACCCAUGUAUCUUUGCCAAGCAGGACCGGGCCUCGAGCGA [#20 Exclusion Tryptophan B] | MS2 coat protein | 0.0236 µM |
| CUUACGGGAAACCGACCCAAACAACGGGAAGGAGCGCCAAACAAGGCAGGUAGGUCGCCCACAUGAGGAUCACCCAUGUGUUGGG [Exclusion Arginine A GF 26] | MS2 coat protein | 0.038 µM |
| ACAUGAGGAUCACCCAUGUAAUUUACAGAAGGAGCGUGAUGGAUCACAGGUAGGUCGCUGUACUGCGAAAGCACUCUCAUGAAUA [JR_Nu_SSArginiA_Sub025] | MS2 coat protein | 0.0168 µM |

# return apparent KD of MS2 coat protein for each item in the list
1. CGGUCGGUCGGCCGGUGAUUAUGGGAUGAAGGAGCGUGGGAAGCUACAGGUAGGUCGCAUCCGAACCAUGAGGAUCACCCAUGGU [SSArg A #23Alt-Ms2 Mod]
2. GGUGACUGCAUGUGGAAUUAAGGUAGGGAAGGAGCGCGGUAAGACGCAGGUAGGUCGCCCUACAUGAGGAUCACCCAUGUGGUGU [Beenmaer]
3. UGAUGGUUCGGAAGGAGCGUGUAAGAACAAGAACAUGAGGAUCACCCAUGUAUUAAUUUAACACAGGUAGGUCGCCGAGUUAUUG [11.I]
4. GCAGUGGGUUAUAAGUAAUAGAAUUCUGAAGGAGCGUGAUGAAACACAGGUAGGUCGCAGGAACAUGAGGAUCACCCAUGUACGG [Same State Arginine A GF20]
5. ACGUAAUGCAGAAGGAGCGUCUUUUUAAAACAUGAGGAUCACCCAUGUAAUAUUUAUGGGAGACAGGUAGGUCGCUGAAGUACGA [JR_SSArginiB_Sub006]

0.0251 µM
0.121 µM
0.0159 µM
0.0587 µM
0.0235 µM

# return apparent KD of MS2 coat protein for each item in the list
1. UCAUGCAGGUCGGCCGCCACUACACACAUGAGGAUCACCCAUGUAGUUACUGGGUGAAGUGGCAGUAGGACCGGGACCUGCAUAU [Brourdmod08]
2. UUAAUCAUAUUAGAAAACUAAUAUGCAGAAGGAGCGUGAUAAAACACAGGUAGGUCGCUGAAGGGAACAUGAGGAUCACCCAUGU [AstrosSSArgA#8]
3. GGAGGUACCUGAAGGAGCGACAUGAGGAUCACCCAUGUCUCCCGUUAUGGGAGUUCUUUAGGUCAGGUAGGUCGCAGGUACCUCC [#1 Exclusion - Arginine B Attempt #3 (Inspired by Omei)]
4. UACAUAUGCCGAAGGAGCGCGAGAUGCAAAGCAUCAUUCCUCACAUGAGGAUCACCCAUGUCGCAGGUAGGUCGCGGCAUAUGUU [ArgBX]
5. AGAGUCAGACAAAAGUCUGGCUCAGCCGAAGGAGCGUCCGAAAGGACAGGUAGGUCGCGGUUACCUGAGGAUCACCCAGGUUCCU [ArgAS 24 #OpenEnded #AlternativeMS2]
6. GGACUAACCAGAAGGAGCGACACGCAGAAACUGCUAUUUCCUCCGCACGAGGAUCACCCGUGUCAGGUAGGUCGCUGGUUAGUCG [ArgBX 28]
7. UUGUGUUUAUUGGUUUAGCUAUUAUGGUUGCGAGGACCGGUACGGCCGCCACUCGAUGGAACAUGAGGAUCACCCAUGUGAGGAA [JR_ExcTryptoA_Sub013]
8. GGCAGUCAUAGCAGGGCAAAUAUACUCGAAGGAGCGUCAUAGUAGGCAGGUAGGUCGCGAGACAUGAGGAUCACCCAUGUAGAGA [uuumullin]

1. 0.423 µM
2. 0.0257 µM
3. 0.0882 µM
4. 0.0325 µM
5. 0.139 µM
6. 0.0195 µM
7. 0.028 µM
8. 0.0689 µM
